The entries below are paired with their reported EC50.
system: HBV; test: HBV inhibition assay: anti-HBV activity in vitro in HepG2.2.15 cells (extracellular HBV DNA by qPCR); format: cell-based; conditions: Hepatitis B virus, 120 h, five days after compound treatment, extracellular HBV DNA in culture supernatant by qPCR, concentration at which HBV replication is inhibited by 50%
API: value field is a number in nM; no unit string.

compound | readout.kind | endpoint.value
C[C@@H]1[C@H](C)N(C(=O)Nc2cc(F)c(F)c(F)c2)Cc2c(N3CCCC3=O)cnn21 | EC50 | 40

Incoming: Name the reported EC50 value associated with the compound C[C@H]1Cn2ncc(N3CC(C#N)CC3=O)c2CN1C(=O)Nc1ccc(F)c(Cl)c1 (stereo partly shown)
Outgoing: 47

Incoming: Fill blank: measured EC50 of the compound CC1CN(c2cnn3c2CN(C(=O)Nc2ccc(F)c(Cl)c2)[C@@H](C)C3)C(=O)O1 (stereo partly shown) is ____.
Outgoing: 47

Incoming: Request the reported EC50 associated with C[C@H]1Cn2ncc(N3CC(C#N)CC3=O)c2CN1C(=O)Nc1cc(F)c(F)c(F)c1 (stereo partly shown)
Outgoing: 16
